Target: Akt3 human enzyme (Homo sapiens, UniProt Q9Y243)
Construct: purchased Upstate Chemicon 14-502
Sequence (Q9Y243 whole entry): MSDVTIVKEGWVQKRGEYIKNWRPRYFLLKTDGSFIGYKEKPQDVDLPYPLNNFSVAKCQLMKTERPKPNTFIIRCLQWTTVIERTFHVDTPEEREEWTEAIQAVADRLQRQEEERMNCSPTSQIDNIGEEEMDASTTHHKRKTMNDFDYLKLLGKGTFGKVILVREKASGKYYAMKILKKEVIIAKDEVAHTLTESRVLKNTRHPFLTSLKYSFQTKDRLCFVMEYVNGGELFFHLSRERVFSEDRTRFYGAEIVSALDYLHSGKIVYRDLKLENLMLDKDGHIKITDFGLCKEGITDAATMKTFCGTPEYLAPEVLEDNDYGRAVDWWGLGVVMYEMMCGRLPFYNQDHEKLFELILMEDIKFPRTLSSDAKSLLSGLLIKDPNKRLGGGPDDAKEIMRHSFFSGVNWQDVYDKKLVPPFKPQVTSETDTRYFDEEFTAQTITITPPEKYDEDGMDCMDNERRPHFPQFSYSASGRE
Assay: Akt3 inhibition assay (IMAP FP)
Format: biochemical
Conditions: read-out: Akt3 Ki, Avg
pKi: −log10 of the molar value.
MEASUREMENT_NAME: pKi

[[record]]
smiles_code = "Cc1ccc(CN2CC[C@@H](Nc3cccc4cnccc34)C2)cc1OCCO"
tested_system = "Akt3 human enzyme (Homo sapiens, UniProt Q9Y243)"
measurement_name = "pKi"
recorded_value = 6.42


----------
Target: Akt3 human enzyme (Homo sapiens)
Construct: purchased Upstate Chemicon 14-502
Assay: Akt3 inhibition assay (IMAP FP)
Type: biochemical
Details: average; read-out: Akt3 Ki
MEASUREMENT_NAME: Ki

[[record]]
smiles_code = "Cc1ccc(CN2CC[C@@H](Nc3cccc4cnccc34)C2)cc1OCCO"
measurement_name = "Ki"
recorded_value = "0.382 µM"


----------
System: cytokine secretion from LPS-stimulated human monocytes
Experiment: Human monocyte cytokine secretion assay (LPS-stimulated)
Format: cell-based
Settings: 10 μM of test compound, 1 ng/mL LPS, 4 hours, read-out: IL-1β % (Percent inhibition values for inhibition of cytokine secretion)
Each entry gets n if its activity at 10 µM stays under 80%, and y if its activity at 10 µM is 80% or above.

[[record]]
smiles_code = "c1ccc(CN2CCC[C@H](Nc3ccc4[nH]ncc4c3)C2)cc1"
group = "n"

[[record]]
smiles_code = "Oc1cccc(CN2CCC[C@@H](Nc3ccc4[nH]ncc4c3)C2)c1"
group = "y"

[[record]]
smiles_code = "C=Cc1ccc(CN2CCC[C@@H](Nc3ccc4[nH]ncc4c3)C2)cc1"
group = "n"

[[record]]
smiles_code = "O=C(COc1cccc(CN2CCC[C@@H](Nc3ccc4[nH]ncc4c3)C2)c1)N1CCOCC1"
group = "y"

[[record]]
smiles_code = "C=Cc1ccc(CN2CCC[C@H](Nc3ccc4[nH]ncc4c3)C2)cc1"
group = "n"

[[record]]
smiles_code = "COc1ccc(CN2CCC[C@@H](Nc3ccc4[nH]ncc4c3)C2)cc1"
group = "y"

[[record]]
smiles_code = "Cc1ccc(CN2CCC[C@H](Nc3ccc4[nH]ncc4c3)C2)cc1"
group = "n"

[[record]]
smiles_code = "CS(=O)(=O)Nc1cccc(CN2CCC[C@H](Nc3ccc4[nH]ncc4c3)C2)c1"
group = "y"

[[record]]
smiles_code = "Fc1ccc(CN2CCC[C@H](Nc3ccc4[nH]ncc4c3)C2)cc1F"
group = "y"

[[record]]
smiles_code = "Brc1ccc(CN2CCC[C@H](Nc3ccc4[nH]ncc4c3)C2)cc1"
group = "y"

[[record]]
smiles_code = "c1cc2c(cc1CN1CCC[C@@H](Nc3ccc4[nH]ncc4c3)C1)CCO2"
group = "y"

[[record]]
smiles_code = "c1ccc(CN2CCC[C@@H](Nc3ccc4[nH]ncc4c3)C2)cc1"
group = "y"

[[record]]
smiles_code = "c1cc2cc(CN3CCC[C@@H](Nc4ccc5[nH]ncc5c4)C3)ccc2[nH]1"
group = "n"

[[record]]
smiles_code = "Cc1ccc(CN2CC[C@@H](Nc3cccc4cnccc34)C2)cc1OCCO"
group = "n"


----------
Test: Rat oral pharmacokinetics (plasma)
Type: in vivo
Conditions: rat oral PK, mean of n = 3 rats
Below, each of the compounds is paired with its reported Vz_F value.
MEASUREMENT_NAME: Vz_F (L/kg)

[[record]]
smiles_code = "c1cc2cc(CN3CCC[C@@H](Nc4ccc5[nH]ncc5c4)C3)ccc2o1"
recorded_value = 6.8

[[record]]
smiles_code = "OCCOc1cccc(CN2CCC[C@@H](Nc3ccc4[nH]ncc4c3)C2)c1"
recorded_value = 19.0

